test: Oral bioavailability of oxycodone conjugates (plasma oxycodone plus oxymorphone); conditions: rats, n = 4 animals, analysis by LC-MS, OXY = 100
experimentalEndpoint: Oral (% AUC)
Give bare numbers, in % AUC.

Before answering, review these 2 worked examples.
- compound: "COc1ccc2c3c1OC1C(OC(=O)[C@@H]4CCCN4C(=O)[C@H](Cc4ccc(O)cc4)NC(=O)[C@@H](N)Cc4ccc(O)cc4)=CCC4(O)[C@@H](C2)N(C)CC[C@]314 (stereo partly drawn) [Tyr-Tyr-Pro-OC]"
  Oral (% AUC): 59
- compound: "COc1ccc2c3c1OC1C(OC(=O)[C@H](Cc4ccccc4)NC(=O)[C@H](CCC(=O)O)NC(=O)[C@@H](N)CCC(=O)O)=CCC4(O)[C@@H](C2)N(C)CC[C@]314 (stereo partly drawn) [Glu-Glu-Phe-OC]"
  Oral (% AUC): 49

// COc1ccc2c3c1OC1C(OC(=O)[C@@H](NC(=O)[C@@H]4CCCN4C(=O)[C@@H]4CCCN4)C(C)C)=CCC4(O)[C@@H](C2)N(C)CC[C@]314 (stereo partly drawn) [Pro-Pro-Val-OC] : Oral (% AUC) value = 152
